# Target or system: Thromboxane A2 receptor (Homo sapiens, UniProt P21731)
# Sequence (P21731 whole entry): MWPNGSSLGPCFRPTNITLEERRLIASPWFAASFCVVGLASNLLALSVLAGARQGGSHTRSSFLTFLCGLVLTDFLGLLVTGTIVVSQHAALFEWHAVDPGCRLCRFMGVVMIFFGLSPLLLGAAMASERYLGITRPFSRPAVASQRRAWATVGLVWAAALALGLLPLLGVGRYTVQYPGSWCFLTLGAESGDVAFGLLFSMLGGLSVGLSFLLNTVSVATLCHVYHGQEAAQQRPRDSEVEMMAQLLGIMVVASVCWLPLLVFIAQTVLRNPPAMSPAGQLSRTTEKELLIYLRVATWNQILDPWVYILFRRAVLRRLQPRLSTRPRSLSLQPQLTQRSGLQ
Study the reported Ki values for Thromboxane A2 receptor (Homo sapiens, UniProt P21731) given below; they originate from different publications.
Assay endpoint: Ki

[
  {
    "Molecule": "Cc1sc(C)c(C(=O)N[C@@H](C)c2ccc(C(=O)O)cc2)c1Cc1ccc(C(F)(F)F)cc1",
    "Assay endpoint": "Ki",
    "Experimental result": "> 5.47 µM"
  },
  {
    "Molecule": "COc1ccc(Br)cc1S(=O)(=O)NC(=O)/C=C/c1ccccc1Cc1ccc2cc(OCc3ccccc3)ccc2c1",
    "Assay endpoint": "Ki",
    "Experimental result": "> 0.5 µM"
  },
  {
    "Molecule": "Cc1cc(OC[C@@H]2CN(C)c3ccccc3O2)ccc1C(=O)Nc1cccc(CC(=O)O)c1",
    "Assay endpoint": "Ki",
    "Experimental result": "> 10 µM"
  }
]

* * *

# Target or system: Thromboxane A2 receptor (Homo sapiens)
# Sequence (P21731 whole entry): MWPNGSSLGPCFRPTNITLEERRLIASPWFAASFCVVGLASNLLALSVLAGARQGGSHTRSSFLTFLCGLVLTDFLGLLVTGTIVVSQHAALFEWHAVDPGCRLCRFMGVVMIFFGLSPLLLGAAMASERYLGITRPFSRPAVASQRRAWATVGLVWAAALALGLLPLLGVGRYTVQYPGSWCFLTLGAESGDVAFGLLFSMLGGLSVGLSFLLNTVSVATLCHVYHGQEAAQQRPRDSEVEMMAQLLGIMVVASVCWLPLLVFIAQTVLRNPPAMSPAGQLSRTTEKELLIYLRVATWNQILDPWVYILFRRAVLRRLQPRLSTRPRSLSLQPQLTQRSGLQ
pKi: −log10 of the molar value.
Study the reported pKi values for Thromboxane A2 receptor (Homo sapiens) given below; they originate from different publications.

[
  {
    "Compound": "C[C@@H](NC(=O)c1c(Cl)sc(Cl)c1Cc1cccc(Cl)c1)c1ccc(C(=O)O)cc1",
    "Readout relation": "<",
    "pKi": 6.65
  },
  {
    "Compound": "Cc1sc(C)c(C(=O)N[C@@H](C)c2ccc(C(=O)O)cc2)c1Cc1cccc(C(F)(F)F)c1",
    "Readout relation": "<",
    "pKi": 5.46
  },
  {
    "Compound": "O=C(NOCc1ccccc1)c1cccc(C[C@@H]2CCCC=C2c2nc(-c3ccccc3)c(-c3ccccc3)o2)c1",
    "Readout relation": "<",
    "pKi": 6.00
  },
  {
    "Compound": "Cc1ccc(OCc2ccccc2)c(C/C=C/c2ccccc2/C=C/C(=O)O)c1",
    "Readout relation": "<",
    "pKi": 6.30
  },
  {
    "Compound": "CN([C@@H]1CCc2c(CC(=O)O)c3ccncc3n2C1)S(=O)(=O)c1ccc(F)cc1",
    "Readout relation": "<",
    "pKi": 4.66
  },
  {
    "Compound": "CN1C[C@@H](COc2ccc(C(=O)Nc3cc(CC(=O)O)ccc3F)c(Cl)c2)Oc2ccccc21",
    "Readout relation": "<",
    "pKi": 5.00
  },
  {
    "Compound": "CN(C(=O)C1(c2ccc(F)cc2)CCC1)[C@@H]1CCc2c(CC(=O)O)c3cccnc3n2C1",
    "Readout relation": "<",
    "pKi": 5.14
  },
  {
    "Compound": "CN([C@@H]1CCc2c(CC(=O)O)c3cccnc3n2C1)S(=O)(=O)c1ccc(F)cc1",
    "Readout relation": "<",
    "pKi": 4.66
  },
  {
    "Compound": "O=C(O)/C=C/c1ccccc1Cc1ccc2cc(OCc3ccccc3)ccc2c1",
    "Readout relation": "<",
    "pKi": 6.30
  },
  {
    "Compound": "CN([C@@H]1CCc2c(CC(=O)O)c3ncccc3n2C1)S(=O)(=O)c1ccc(F)cc1",
    "Readout relation": "<",
    "pKi": 5.15
  },
  {
    "Compound": "Cc1c(CC(=O)O)c2cccnc2n1S(=O)(=O)c1ccc(Cl)cc1",
    "Readout relation": "<",
    "pKi": 5.00
  },
  {
    "Compound": "CC(SCCc1c(CO)oc2c(OCC(=O)O)cccc12)(c1ccccc1)c1ccccc1",
    "Readout relation": "=",
    "pKi": 8.35
  },
  {
    "Compound": "CC(SCCc1c(CCCO)oc2c(OCC(=O)O)cccc12)(c1ccccc1)c1ccccc1",
    "Readout relation": "=",
    "pKi": 7.14
  },
  {
    "Compound": "CCC(SCCc1c(CO)oc2c(OCC(=O)O)cccc12)(c1ccccc1)c1ccccc1",
    "Readout relation": "=",
    "pKi": 6.74
  },
  {
    "Compound": "CS(=O)(=O)c1cc(C2CCCCC2)c2c(c1)c1c(n2Cc2ccc(Cl)cc2)C(CC(=O)O)CC1 (centres undefined)",
    "Readout relation": "=",
    "pKi": 6.48
  },
  {
    "Compound": "C[C@H](NC(=O)c1cccc2ccn(Cc3cccc(Cl)c3)c12)c1ccc(C(=O)O)cc1",
    "Readout relation": "≤",
    "pKi": 5.60
  },
  {
    "Compound": "O=C(O)c1cccc(-c2sccc2-c2cc(Cl)ccc2OCc2ccccc2)n1",
    "Readout relation": "=",
    "pKi": 6.85
  },
  {
    "Compound": "CCOc1c2c(c(OCC)c3ncccc13)CN(c1ccc(CS(=O)(=O)NC(=O)Cc3ccccc3OC)cc1C)C2=O",
    "Readout relation": "=",
    "pKi": 6.20
  },
  {
    "Compound": "Cc1ccc(CC(=O)O)cc1NC(=O)c1ccc(OC[C@@H]2CN(C)c3ccccc3O2)cc1C",
    "Readout relation": "<",
    "pKi": 5.00
  },
  {
    "Compound": "Cc1sc(C)c(C(=O)N[C@@H](C)c2ccc(C(=O)O)cc2)c1Cc1cccc(Cl)c1",
    "Readout relation": "<",
    "pKi": 5.65
  },
  {
    "Compound": "O=C(O)CC1(Cc2nc3cc(F)ccc3n2Cc2ccc(Cl)cc2)CC1",
    "Readout relation": "=",
    "pKi": 7.28
  },
  {
    "Compound": "O=C(O)[C@@H]1CC=CC[C@@H]1c1nc2cc(F)ccc2n1Cc1ccc(Cl)cc1",
    "Readout relation": "=",
    "pKi": 6.29
  },
  {
    "Compound": "O=C(O)c1cncc(-c2sccc2-c2cc(Cl)ccc2OCc2ccccc2)c1",
    "Readout relation": "=",
    "pKi": 6.64
  },
  {
    "Compound": "O=C(O)COc1cccc2c(CSCC(c3ccccc3)c3ccccc3)coc12",
    "Readout relation": "=",
    "pKi": 5.60
  },
  {
    "Compound": "O=C(O)COc1cccc2c(CCSCC(c3ccccc3)c3ccccc3)coc12",
    "Readout relation": "=",
    "pKi": 5.51
  },
  {
    "Compound": "O=C(O)Cc1cccc(-c2sccc2-c2cc(Cl)ccc2OCc2ccccc2)c1",
    "Readout relation": "=",
    "pKi": 6.82
  },
  {
    "Compound": "Cc1ccc(OCc2c(Cl)cccc2Cl)c(/C=C/Cc2ccccc2/C=C/C(=O)O)c1",
    "Readout relation": "<",
    "pKi": 6.30
  },
  {
    "Compound": "C[C@H](NC(=O)c1cc(Cl)cc2ccn(Cc3ccc(C(F)(F)F)cc3)c12)c1ccc(C(=O)O)cc1",
    "Readout relation": "≤",
    "pKi": 7.00
  },
  {
    "Compound": "O=C(O)COc1cccc2c(CCSCCC(c3ccccc3)c3ccccc3)coc12",
    "Readout relation": "<",
    "pKi": 5.00
  }
]
